Tested on: NCI-H1563 NSCLC cell line
protocol description: Ex vivo proliferation assay, 72 h exposure
Type: cell-based
assay conditions: Homo sapiens; NCI-H1563, 72 h of exposure; read-out: 3424 IC50
observable: IC50 (nM)
Just the number please, in nM, no unit attached.

Provide one value: measured IC50 of C[C@H](OP(=O)(N1CC1)N1CC1)c1ccc([N+](=O)[O-])c(Oc2cccc(C(=O)N(C)C)c2)c1 2.5

----------
Tested on: ALL cell lines
protocol description: Ex vivo cytotoxicity in ALL cell lines (summary)
Assay type: cell-based
assay conditions: Homo sapiens, cell lines with medium AKR1C3 expression levels
observable: IC50

Provide one value: measured IC50 of C[C@H](OP(=O)(N1CC1)N1CC1)c1ccc([N+](=O)[O-])c(Oc2cccc(C(=O)N(C)C)c2)c1 0.003 to 0.084 µM
